TGT: T1, HUWE1 (3759–4374) (human, UniProt Q7Z6Z7 3759-4374)
T1 construct: also called extended C-terminal HUWE1 fragment; source: LOBSTR RIL cells, purified (IMAC, gel filtration)
T1 sequence (looked up): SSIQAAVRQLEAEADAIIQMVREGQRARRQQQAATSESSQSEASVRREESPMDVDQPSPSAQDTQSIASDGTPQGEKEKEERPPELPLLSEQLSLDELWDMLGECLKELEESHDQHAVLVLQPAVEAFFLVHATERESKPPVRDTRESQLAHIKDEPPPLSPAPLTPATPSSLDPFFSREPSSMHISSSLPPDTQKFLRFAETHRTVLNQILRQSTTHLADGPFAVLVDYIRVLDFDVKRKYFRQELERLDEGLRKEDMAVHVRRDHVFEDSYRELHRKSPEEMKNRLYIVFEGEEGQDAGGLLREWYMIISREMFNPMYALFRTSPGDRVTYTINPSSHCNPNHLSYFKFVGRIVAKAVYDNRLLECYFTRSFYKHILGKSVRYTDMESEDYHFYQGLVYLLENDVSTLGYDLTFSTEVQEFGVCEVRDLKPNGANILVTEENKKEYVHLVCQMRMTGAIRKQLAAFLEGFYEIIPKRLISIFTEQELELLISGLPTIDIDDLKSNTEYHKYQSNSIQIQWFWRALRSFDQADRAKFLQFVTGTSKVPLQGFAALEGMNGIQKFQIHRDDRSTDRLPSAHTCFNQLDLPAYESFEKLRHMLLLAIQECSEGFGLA
EXPERIMENT: fluorescence polarisation; apparent KD; constant 1 μM TAMRA-labelled p14ARF (45–64) peptide titrated with HUWE1 protein; 25°C, 20 mM HEPES pH 8.0, 150 mM NaCl, 10% glycerol, 1 mM EDTA, 5 mM DTT; three independent experiments
ASSAY_CONDITIONS: both partners purified
Ends that are not written are not given here.
QUANTITY_NAME: Kd (µM)
Reply with just the number (in µM).

Output Kd of LVLMLLRSQRLGQQPLPRRPK(TAMRA) (p14ARF (alternative reading frame product of CDKN2A), human, residues 45–64; additional lysine residue at the C-terminus that carries the TAMRA label (told in words); also called p14ARF-peptide; p14ARF (45-64); source: synthetic peptide, bought: Elim Biopharm) [fluorophor-labeled p14ARF-derived peptide (residues 45–64), TAMRA-labelled]
7.7

Every entry's value here was drawn from paper PMC5308896.
